# ASSAY_SYSTEM: H. sapiens SLC2A9 variant 2 (GLUT9B) (Homo sapiens, UniProt Q9NRM0)
# ASSAY_COMMENT: GLUT9 functional assay: uric acid uptake in HEK293T cells, allantoin formation by MS/MS as proxy of GLUT9B inhibition
# Type: cell-based
# RUN_PARAMETERS: 60 minute assay; HEK293T cells stably expressing GLUT9B and transiently A. oryzae uricase; uric acid 0.3 mM, 37° C.; read-out: 60 min IC50
pIC50: −log10 of the molar value.
Would you kindly list pIC50 for each of these compounds?

Here is how some compounds turned out for pIC50.
[
  {
    "COMPOUND": "COCCCc1cnc(-c2ccc3occ(C)c3c2)c(N2CCC(C(=O)O)CC2)n1 [Compound 242]",
    "QUANTITY": "pIC50",
    "RECORDED_VALUE": "5.70 to 6.30"
  },
  {
    "COMPOUND": "COCCCc1cnc(-c2ccc3occ(Cl)c3c2)c(N2CCC(C(=O)O)CC2)n1 [Compound 253]",
    "QUANTITY": "pIC50",
    "RECORDED_VALUE": "> 6.30"
  }
]

Here are 5 compounds. What values of pIC50 were reported for them?
1. COCCCc1cnc(-c2ccc3nn(C)cc3c2)c(N2CCC(C(=O)O)CC2)n1 [Compound 198]
2. COCCCc1cnc(-c2cc(Cl)c3occc3c2)c(N2CCC(C(=O)O)CC2)n1 [Compound 224]
3. COCCCc1cnc(-c2cc(F)c3c(c2)OCO3)c(N2CCCC(C(=O)O)CC2)c1 (centres unmarked) [Compound 246]
4. COCCCc1cnc(-c2ccc3c(C)[nH]nc3c2)c(N2CCC(C(=O)O)CC2)n1 [Compound 197]
5. COCCCc1cnc(-c2ccc3c(c2)OCO3)c(N2CC(C(=O)O)C2)c1 [Compound 251]

< 5.70
> 6.30
> 6.30
< 5.70
< 5.70

Hi! Can you tell me pIC50 for each of these compounds?
1. COCCCc1cnc(-c2cc3ccoc3c(F)c2F)c(N2CCC(C(=O)O)CC2)n1 [Compound 223]
2. COCCCc1cnc(-c2cc(F)c3occc3c2)c(N2CCCC(C(=O)O)CC2)c1 (centres unmarked) [Compound 245]
3. COCCCc1cnc(-c2cc(F)c3sccc3c2)c(N2CCC(C(=O)O)CC2)n1 [Compound 225]
4. COCCCc1cnc(-c2ccc3occc3c2)c(N2CCC(C(=O)O)CC2C)n1 (racemic) [Compound 180]

> 6.30
> 6.30
> 6.30
> 6.30

----------
# ASSAY_SYSTEM: H. sapiens SLC2A9 variant 2 (GLUT9B) (Homo sapiens, UniProt Q9NRM0)
# Sequence (Q9NRM0 1-511 isoform Q9NRM0-2): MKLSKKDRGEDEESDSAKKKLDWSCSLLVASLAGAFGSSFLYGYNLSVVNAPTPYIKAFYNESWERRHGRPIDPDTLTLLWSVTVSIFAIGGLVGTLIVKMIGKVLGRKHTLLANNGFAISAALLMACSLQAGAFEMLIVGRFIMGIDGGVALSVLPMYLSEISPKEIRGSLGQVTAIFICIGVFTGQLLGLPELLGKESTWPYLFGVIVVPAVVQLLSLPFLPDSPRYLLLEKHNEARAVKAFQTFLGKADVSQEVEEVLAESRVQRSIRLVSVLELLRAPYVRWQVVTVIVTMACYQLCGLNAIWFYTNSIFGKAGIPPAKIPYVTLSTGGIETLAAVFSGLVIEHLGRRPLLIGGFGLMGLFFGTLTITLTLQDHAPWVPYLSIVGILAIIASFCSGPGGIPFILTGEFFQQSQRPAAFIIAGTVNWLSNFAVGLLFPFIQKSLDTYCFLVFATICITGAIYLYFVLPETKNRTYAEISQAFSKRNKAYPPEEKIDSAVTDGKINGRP
# ASSAY_COMMENT: GLUT9 functional assay: uric acid uptake in HEK293T cells, allantoin formation by MS/MS as proxy of GLUT9B inhibition
# Format: cell-based
# RUN_PARAMETERS: 60 minute assay; HEK293T cells stably expressing GLUT9B and transiently A. oryzae uricase; uric acid 0.3 mM, 37° C.; read-out: 60 min IC50
pIC50: −log10 of the molar value.
QUANTITY: pIC50

[
  {
    "COMPOUND": "COCCCc1cnc(-c2ccc3c(c2)CCS3(=O)=O)c(N2CCC(C(=O)O)CC2)n1",
    "QUANTITY": "pIC50",
    "RECORDED_VALUE": "< 5.70"
  },
  {
    "COMPOUND": "CCC(F)(F)Cc1cnc(-c2ccc(OCC3CC3)cc2)c(N2CCC(C(=O)O)CC2)n1",
    "QUANTITY": "pIC50",
    "RECORDED_VALUE": "< 5.70"
  },
  {
    "COMPOUND": "COCCCc1cnc(-c2cc(F)c3occc3c2)c(N2CCC(C)(C(=O)O)CC2)n1",
    "QUANTITY": "pIC50",
    "RECORDED_VALUE": "> 6.30"
  },
  {
    "COMPOUND": "COCCCc1cnc(-c2ccc3occc3c2)c(N2CCC3(C(=O)O)CC2C3)n1",
    "QUANTITY": "pIC50",
    "RECORDED_VALUE": "> 6.30"
  },
  {
    "COMPOUND": "COCCCc1cnc(-c2cc(F)c3occc3c2)c(N2CCC(C(=O)O)CC2)n1",
    "QUANTITY": "pIC50",
    "RECORDED_VALUE": "> 6.30"
  },
  {
    "COMPOUND": "COCCCc1cnc(-c2ccc3oc(COC)cc3c2)c(N2CCC(C(=O)O)CC2)n1",
    "QUANTITY": "pIC50",
    "RECORDED_VALUE": "5.70 to 6.30"
  },
  {
    "COMPOUND": "COCCCc1cnc(-c2ccc3nsnc3c2)c(N2CCC(C(=O)O)CC2)n1",
    "QUANTITY": "pIC50",
    "RECORDED_VALUE": "< 5.70"
  }
]

Moving on to another compound below.
In one line, give reported pIC50 of the entry `COCCCc1cnc(-c2ccc3c[nH]nc3c2)c(N2CCC(C(=O)O)CC2)n1` .
< 5.70
